Tested on: MS2 coat protein
Test: apparent KD of MS2 coat protein; designed switch direction (-1 OFF switch, 1 ON switch): -1; higher = weaker reporter binding
Experimental Context: input ligand: none
Recorded Endpoint: apparent KD of MS2 coat protein (nM)
API: value field is a number in nM; no unit string.

Fill in: MS2 coat protein apparent KD of MS2 coat protein for AAUUAAACAAGCAGAUCCCACAUGAGGAUCACCCAUGUGCUCGUCUUAUAAGGUACUGUGACAAAAGUCACGGUACC [Mat - Sensor, turn-off var - Eli Mod - D67] (Eterna round: R97, puzzle: Sensor, turn-off variant 1) = 51.7

Fill in: MS2 coat protein apparent KD of MS2 coat protein for UGUUGUCGCGCAGGAUAUGCAUGAGGAUCACCCAUGCAAUUAGAGUUAACAUGAGGAUCACCCAUGUAGAAGGGCGGGACAACU [pwkr exNG2 2xF5 1xFMN.5] (Eterna round: R96, puzzle: Exclusion NG 2) = 54.2

Fill in: MS2 coat protein apparent KD of MS2 coat protein for UGAGACUGAGGAUAUACUAGCCCAUAAAGUGGGUUGUGGGUACAUGAGGAUCACCCAUGUAGAAGGCAGCCUCG [Omei Repeat Sequence v4] (Eterna round: R97, puzzle: Exclusion 2) = 75.4

Fill in: MS2 coat protein apparent KD of MS2 coat protein for CAGUACUGAGGAUAUACAUGAGGAUCACCCAUGUGUCUUAUAUUAGGAAACUAGGUAUGUAGAAGGCAGUACUG [Omei Ex3 Mod of Eli 4.27 v4] (Eterna round: R97, puzzle: Exclusion 3) = 62.1
